Source: patent US20120165319A1

Below, each of the compounds is paired with its reported log10(IC50) value.
- Tested on: IL-1β, human peripheral blood mononuclear cells (PBMC)
- procedure.summary: PBMC cell assay: IL-1β assay with human PBMC or enriched adherent mononuclear cells, LPS-stimulated
- Assay type: cell-based
- conditions: Homo sapiens, PBMC, * = values obtained upon reassay
measurement.name: log10(IC50) (log10 of the value in nM)

# compound, test.system, log10(IC50)
rows = [
    ("O=C[C@H](CC(=O)O)NC(=O)[C@@H]1CCCN2C(=O)CC[C@H](NC(=O)c3ccc(Oc4ccccc4)cc3)C(=O)N12 [Compound 443]", "IL-1β, human peripheral blood mononuclear cells (PBMC)", 3.45),
    ("COc1ccc(C(=O)N[C@H]2CCC(=O)N3CCC[C@@H](C(=O)N[C@H](C=O)CC(=O)O)N3C2=O)cc1 [Compound 452]", "IL-1β, human peripheral blood mononuclear cells (PBMC)", 2.78),
    ("CC(=O)N1C[C@H](NC(=O)OCc2ccccc2)C(=O)N(CC(=O)N[C@H](C=O)CC(=O)O)c2ccccc21 [Compound 633]", "IL-1β, human peripheral blood mononuclear cells (PBMC)", 3.76),
    ("O=C[C@H](CC(=O)O)NC(=O)[C@@H]1CCCN2C(=O)CC[C@H](NC(=O)c3ccc(CO)cc3)C(=O)N12 [Compound 479]", "IL-1β, human peripheral blood mononuclear cells (PBMC)", 2.95),
    ("COC(=O)N[C@H]1CCC(=O)N2CCC[C@@H](C(=O)N[C@@H](CC(=O)O)C(=O)COC(=O)c3c(Cl)cccc3Cl)N2C1=O [Compound 284]", "IL-1β, human peripheral blood mononuclear cells (PBMC)", 2.67),
]
